System: CCD-966SK
assay summary: MTT cell proliferation assay, CCD-966SK
run conditions: CCD966SK skin fibroblast; 10 µM; 72 h MTT
% Inhibition at 10 µM overview
Report the figure in % without appending any unit label.

Solved entries:
>>> val("c1csc(CNc2c3ccccc3nc3ccccc23)c1")
11.54
>>> val("COc1ccc2nc3ccccc3c(NCc3ccc(F)cc3)c2c1")
60.66
>>> val("COc1ccc(CNc2c3ccccc3nc3ccccc23)cc1OC")
32.27

I looked up "COc1cccc(CNc2c3ccccc3nc3ccccc23)c1OC" and its % Inhibition at 10 µM for CCD-966SK was 29.78

I looked up "Fc1ccc(CNc2c3ccccc3nc3ccccc23)c(F)c1" and its % Inhibition at 10 µM for CCD-966SK was 30.94
